Values compiled from ChEMBL document CHEMBL1201862.

test system: SK-OV-3; test: NCI tumour cell line growth inhibition, 48 h
Calls of active or inactive are those of the source. No stated cut-off is given here; in the data, active = GI50 up to about 1.1 µM and inactive = higher.
Below, each entry is listed with its recorded GI50.
ENDPOINT LABEL: GI50

[[record]]
compound = "CCOC(=O)c1sc2c(c1OC(=O)c1ccc(Cl)cc1Cl)c(=O)n(-c1ccccc1)c(=S)n2-c1ccccc1"
tested_system = "SK-OV-3"
result = "5.42 µM (inactive)"

[[record]]
compound = "Cc1nn(-c2ccccn2)c2c1C(SC#N)=C(C=O)CC2"
tested_system = "SK-OV-3"
result = "19.3 µM (inactive)"

[[record]]
compound = "CCN(CC)CCNc1nc(N)c(C#N)c(C#N)c1C#N"
tested_system = "SK-OV-3"
result = "> 10 µM (inactive)"

[[record]]
compound = "Cc1cc2c(=O)c3ccc(Cl)cc3[nH]c2c(C(N)=O)c1C"
tested_system = "SK-OV-3"
result = "> 100 µM (inactive)"

[[record]]
compound = "C=CCN1C(=O)CS/C1=N\\NC(=O)CSc1nc2ccccc2c(=O)n1CC"
tested_system = "SK-OV-3"
result = "> 100 µM (inactive)"

[[record]]
compound = "O=C(/C=C/c1ccc(O)c(-c2cc(C(=O)/C=C/c3ccc(O)cc3)c(O)cc2O)c1)c1ccc(O)cc1O"
tested_system = "SK-OV-3"
result = "16.1 µM (inactive)"

[[record]]
compound = "CCOc1ccc(/C=C/C(=O)c2sc(NNC(C)=O)nc2C)cc1"
tested_system = "SK-OV-3"
result = "> 100 µM (inactive)"

[[record]]
compound = "COC(=O)/C(C#N)=C(\\N)C(Cl)(Cl)Cl"
tested_system = "SK-OV-3"
result = "1.81 µM (inactive)"

[[record]]
compound = "O=C1CN(C(=O)C2CCCN2C(=O)C2CCCN2)C(=O)CN1 (stereo not given)"
tested_system = "SK-OV-3"
result = "> 100 µM (inactive)"

[[record]]
compound = "COc1ccc(Cc2ccccc2C(=O)O)c2ccccc12"
tested_system = "SK-OV-3"
result = "40.6 µM (inactive)"


----------
test system: SW-620; test: NCI tumour cell line growth inhibition, 48 h
Active and inactive are the calls of the source. Rule as the data show it: active = GI50 up to about 1.1 µM and inactive = higher. Square brackets hold non-standard residues; d marks the D form. Peptide text beside a SMILES is read from it. * marks the point of attachment. ξ: configuration not given here. ξF = NC(Cc1ccccc1)C(=O)O; Cbz = O=C(OCc1ccccc1)*; Aib = CC(C)(N)C(=O)O
Classes used: active, inactive

[[record]]
compound = "CC(C)(NC(=O)OCc1ccccc1)C(=O)NC(Cc1ccccc1)C(=O)O (centres undefined) (Cbz-[Aib]-[ξF]-OH)"
tested_system = "SW-620"
class_name = "inactive"

[[record]]
compound = "O=C1CCC(c2ccccc2)(c2ccccc2)CC1"
tested_system = "SW-620"
class_name = "inactive"

[[record]]
compound = "COc1cc(C2c3cc4c(cc3[C@@H](NCCN3CCCCC3)C3COC(=O)[C@H]23)OCO4)cc(OC)c1O (some centres undefined)"
tested_system = "SW-620"
class_name = "active"

[[record]]
compound = "CSc1ncnc2c1ncn2C1OC(CO)C(O)OC1O (centres undefined)"
tested_system = "SW-620"
class_name = "inactive"

[[record]]
compound = "Cc1ccc2c(O)cc(-c3cccc(Cl)c3)nc2n1"
tested_system = "SW-620"
class_name = "active"

[[record]]
compound = "O=C(O)C12CCC(CC1=O)C2 (centres undefined)"
tested_system = "SW-620"
class_name = "inactive"

[[record]]
compound = "CCOC(=O)NC(Nc1ccc([N+](=O)[O-])cc1)(C(F)(F)F)C(F)(F)F"
tested_system = "SW-620"
class_name = "inactive"

[[record]]
compound = "C[N+](C)(C)CC(=O)N/N=C(\\C(=O)NC1=C(Cl)C(=O)c2ccccc2C1=O)C(C#N)c1nc(-c2ccc([N+](=O)[O-])cc2)cs1 (centres undefined)"
tested_system = "SW-620"
class_name = "inactive"

[[record]]
compound = "CC(=O)NC1C(OCc2ccccc2)OC(CO)C(O)C1OCC(=O)NC(C)C(=O)NC(CCC(=O)Nc1ccc2c(c1)CN1C(=O)c3ccccc3C1=N2)C(N)=O (centres undefined)"
tested_system = "SW-620"
class_name = "inactive"

